All values here come from paper PMC7531004.

- Cond: cell viability/%
Where a SMILES comes first, the peptide text is derived from it. [ ]: non-standard residue; d: D form. The star is where a group is joined. NHCH2CH2OH = OCCN*; For = O=C*
Endpoint name: viability (%)
Provide only the numeric value, understood in %.

Kindly note the recorded viability for CC(C)C[C@@H](NC(=O)[C@H](C)NC(=O)CNC(=O)[C@@H](NC=O)C(C)C)C(=O)N[C@@H](C)C(=O)N[C@@H](C(=O)N[C@H](C(=O)N[C@H](CC(C)C)C(=O)N[C@@H](Cc1c[nH]c2ccccc12)C(=O)N[C@@H](C(=O)N[C@@H](Cc1c[nH]c2ccccc12)C(=O)N[C@@H](C(=O)N[C@@H](Cc1c[nH]c2ccccc12)C(=O)N[C@H](CC(C)C)C(=O)N[C@@H](Cc1c[nH]c2ccccc12)C(=O)NCCO)C(C)C)[C@H](C)O)C(C)C)C(C)C [compound 2236] (For-VGA[dL]A[dV]V[dL]W[dT]W[dV]W[dL]W-NHCH2CH2OH) , which is 100
